The reader will find reported hα2A pIC50 values listed item by item below.
# Measured target: hα2A receptor (Homo sapiens, UniProt P08913)
# Construct: expressed in transfected cells
# Sequence (P08913 whole entry): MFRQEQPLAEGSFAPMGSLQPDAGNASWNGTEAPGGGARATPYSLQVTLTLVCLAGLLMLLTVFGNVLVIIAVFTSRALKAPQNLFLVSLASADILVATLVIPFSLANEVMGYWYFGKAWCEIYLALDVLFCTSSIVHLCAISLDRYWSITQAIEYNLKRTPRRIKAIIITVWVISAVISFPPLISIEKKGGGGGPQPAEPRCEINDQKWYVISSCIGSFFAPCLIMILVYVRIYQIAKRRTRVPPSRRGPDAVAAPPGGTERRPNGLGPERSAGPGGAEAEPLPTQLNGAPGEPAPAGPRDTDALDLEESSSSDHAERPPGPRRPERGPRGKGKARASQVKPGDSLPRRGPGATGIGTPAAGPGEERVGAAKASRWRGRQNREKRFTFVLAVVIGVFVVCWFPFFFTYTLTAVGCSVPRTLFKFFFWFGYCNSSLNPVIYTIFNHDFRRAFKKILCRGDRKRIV
# Procedure summary: Radioligand binding experiment for hα2A receptor ([3H]-raulwolscine)
# Conditions used: membranes of CHO cells expressing human α2A receptor; [3H]raulwolscine 1 nM
Could you keep your reply to the number by itself?

{"Molecule": "CN1CC2C(=NOC2CN2CCN(Cc3ccc4ccccc4c3)CC2)c2ccccc21 (stereo not shown) [Compound 266]", "hα2A pIC50": 7.84}
{"Molecule": "CC(=O)Oc1ccc2c(c1)OCC1C2=NOC1CN1CCN(CC=Cc2ccccc2)CC1 (stereo not shown) [Compound 233]", "hα2A pIC50": 8.33}
{"Molecule": "C=CCOc1cc2c(cc1OC)C1=NOC(CN3CCN(CC(C)=Cc4ccccc4)CC3)C1CO2 (single isomer, unassigned) [Compound 344]", "hα2A pIC50": 8.45}
{"Molecule": "COc1cc2c(cc1OC)C1=NOC(CN(C)C3CCN(Cc4ccc5ccccc5c4)CC3)C1CO2 (racemic) [Compound 281]", "hα2A pIC50": 7.05}
{"Molecule": "COc1cc2c(cc1Cl)C1=NOC(CN3CCN(CC(C)=Cc4ccccc4)CC3)C1CO2 (stereo not shown) [Compound 246]", "hα2A pIC50": 7.55}

Record COc1cc2c(cc1SC)OCC1C2=NOC1CN1CCN(CC(C)=Cc2ccccc2)CC1.O=C(O)C(F)(F)F (racemic) [Compound 350] . Reported hα2A pIC50: 8.39

For record C(=Cc1ccccc1)CN1CCN(CC2ON=C3c4cc5c(cc4OCC32)OCC5)CC1 (racemic) [Compound 279] the listed hα2A pIC50 is 8.45
